All values here come from ChEMBL document CHEMBL1156251.

Tgt: Lipopolysaccharide (LPS)
Method Summary: Displacement of dansyl-PMB from LPS by isothermal titration calorimetry
Where a SMILES comes first, the peptide text is derived from it. Bridges are numbered along the chain shown (N, C = ends). [ ]: non-standard residue; d: D form. The star is where a group is joined. Heptanoyl(6-Me) = CC(C)CCCCC(=O)*; Heptanoyl = CCCCCCC(=O)*; Dab = NCC[C@H](N)C(=O)O
Measured IC50, listed per entry for reference.

Compound: CCCCCCC(=O)N[C@@H](CCN)C(=O)N[C@H](C(=O)N[C@@H](CCN)C(=O)N[C@H]1CCNC(=O)[C@H]([C@@H](C)O)NC(=O)[C@H](CCN)NC(=O)[C@H](CCN)NC(=O)[C@H](CC(C)C)NC(=O)[C@@H](Cc2ccccc2)NC(=O)[C@H](CCN)NC1=O)[C@@H](C)O [POLYMYXIN B4] (Heptanoyl-[Dab]T[Dab][Dab][Dab][dF]L[Dab][Dab]T; lactam 4-C)
IC50 [µM]: 10
--
Compound: CCCCCCCC(=O)N[C@@H](CCN)C(=O)N[C@H](C(=O)N[C@@H](CCN)C(=O)N[C@H]1CCNC(=O)[C@@H]([C@@H](C)O)NC(=O)[C@H](CCN)NC(=O)[C@H](CCN)NC(=O)[C@H](CC(C)C)NC(=O)[C@@H](Cc2ccccc2)NC(=O)[C@H](CCN)NC1=O)[C@@H](C)O
IC50 [µM]: 8
--
Compound: CC(C)CCCCC(=O)N[C@@H](CCN)C(=O)N[C@H](C(=O)N[C@@H](CCN)C(=O)N[C@H]1CCNC(=O)[C@H]([C@@H](C)O)NC(=O)[C@H](CCN)NC(=O)[C@H](CCN)NC(=O)[C@H](CC(C)C)NC(=O)[C@@H](Cc2ccccc2)NC(=O)[C@H](CCN)NC1=O)[C@@H](C)O [POLYMYXIN B2] ({Heptanoyl(6-Me)}-[Dab]T[Dab][Dab][Dab][dF]L[Dab][Dab]T; lactam 4-C)
IC50 [µM]: 9

---

Measured MIC, listed per entry for reference.
Test system: Escherichia coli
Method Summary: Antimicrobial activity against Escherichia coli
Assay type: functional
Where a SMILES comes first, the peptide text is derived from it. Bridges are numbered along the chain shown (N, C = ends). [ ]: non-standard residue; d: D form. The star is where a group is joined. Octanoyl = CCCCCCCC(=O)*; Dab = NCC[C@H](N)C(=O)O

Molecule: CC(C)C[C@@H]1NC(=O)[C@@H](CC(C)C)NC(=O)[C@H](CCN)NC(=O)[C@@H](NC(=O)[C@H](CCN)NC(=O)[C@@H](NC(=O)[C@H](CCN)NC(=O)c2ccc3cc4ccccc4cc3c2)[C@@H](C)O)CCNC(=O)[C@H]([C@@H](C)O)NC(=O)[C@H](CCN)NC(=O)[C@H](CCN)NC1=O
MIC [µM]: 4
--
Molecule: CCCCCCCCCCCCCC(=O)N[C@H](C(=O)N[C@@H](CCN)C(=O)N[C@H]1CCNC(=O)[C@H]([C@@H](C)O)NC(=O)[C@H](CCN)NC(=O)[C@H](CCN)NC(=O)[C@H](CC(C)C)NC(=O)[C@@H](Cc2ccccc2)NC(=O)[C@H](CCN)NC1=O)[C@@H](C)O
MIC [µM]: 4
--
Molecule: CC(C)C[C@@H]1NC(=O)[C@@H](Cc2ccccc2)NC(=O)[C@H](CCN)NC(=O)[C@@H](NC(=O)[C@H](CCN)NC(=O)[C@@H](NC(=O)[C@H](Cc2c[nH]c3ccccc23)NC(=O)O)[C@@H](C)O)CCNC(=O)[C@H]([C@@H](C)O)NC(=O)[C@H](CCN)NC(=O)[C@H](CCN)NC1=O [DESFA-[TRP1]POLYMYXIN B]
MIC [µM]: 8
--
Molecule: CCCC1CCC(C(=O)N[C@@H](CCN)C(=O)N[C@H](C(=O)N[C@@H](CCN)C(=O)N[C@H]2CCNC(=O)[C@H]([C@@H](C)O)NC(=O)[C@H](CCN)NC(=O)[C@H](CCN)NC(=O)[C@H](CC(C)C)NC(=O)[C@@H](CC(C)C)NC(=O)[C@H](CCN)NC2=O)[C@@H](C)O)CC1 (some centres not stated)
MIC [µM]: 8
--
Molecule: CC(C)C[C@@H]1NC(=O)[C@@H](Cc2ccccc2)NC(=O)[C@H](CCN)NC(=O)[C@@H](NC(=O)[C@H](CCN)NC(=O)[C@@H](NC(=O)[C@H](CCN)NC(=O)[C@@H](CCN)NC(=O)[C@@H](N)CCN)[C@@H](C)O)CCNC(=O)[C@H]([C@@H](C)O)NC(=O)[C@H](CCN)NC(=O)[C@H](CCN)NC1=O [DESFA-[DAB-DAB-DAB1]POLYMYXIN B]
MIC [µM]: 8
--
Molecule: CC(C)C[C@@H]1NC(=O)[C@@H](CC(C)C)NC(=O)[C@H](CCN)NC(=O)[C@@H](NC(=O)[C@H](CCN)NC(=O)[C@@H](NC(=O)[C@H](CCN)NC(=O)CCCc2cc3ccc4cccc5ccc(c2)c3c45)[C@@H](C)O)CCNC(=O)[C@H]([C@@H](C)O)NC(=O)[C@H](CCN)NC(=O)[C@H](CCN)NC1=O
MIC [µM]: 2
--
Molecule: CCCCCCCC(=O)N[C@@H](CCN)C(=O)N[C@H](C(=O)N[C@@H](CCN)C(=O)N[C@H]1CCNC(=O)[C@H]([C@@H](C)O)NC(=O)[C@H](C)NC(=O)[C@H](CCN)NC(=O)[C@H](CC(C)C)NC(=O)[C@@H](Cc2ccccc2)NC(=O)[C@H](CCN)NC1=O)[C@@H](C)O (Octanoyl-[Dab]T[Dab][Dab][Dab][dF]L[Dab]AT; lactam 4-C)
MIC [µM]: 4
